Tested on: HT29 colon
Experiment: NCI-60 one-dose screen, 48 h (100 = growth as untreated, 0 = no growth, -100 = all killed)
Details: 10 µM unless noted
Method: Growth inhibition of the HT29 human tumor cell line is measured as a screen for anti-cancer activity. Cells are grown in 96 well plates and exposed to the test compound for 48 hours. Compounds are tested at a single concentration, which is 10^-5 M for most compounds. The reported endpoint is percent growth (GI% or GIPRCNT), where numbers from 0 - 100% represent growth inhibition, and numbers from -100% - 0 represent cell death. For example, a value of 40 represents 60% growth inhibition. […]
The panel holds about 83,000 compounds, 20% with a hit somewhere; the sample as a whole holds those more often.
quantity_measured: growth (%)
Please give a number only; it is taken to be in %.

Examples with their reported growth follow.
molecule: Clc1nc(Oc2ccccc2)nc(-c2cn(-c3ccccc3)c3ccccc23)n1
quantity_measured: growth
units_symbol: %
observed_value: 40.6

molecule: O[C@H](c1cc(C(F)(F)F)nc2c(C(F)(F)F)cccc12)[C@@H]1CCCCN1
quantity_measured: growth
units_symbol: %
observed_value: 47.5

molecule: Oc1ccccc1C=NCC1CCC(CN=Cc2ccccc2O)CC1 (stereo not drawn)
quantity_measured: growth
units_symbol: %
observed_value: 17.1

Bench note, HT29 colon: entry CC1(c2ccc3ccccc3c2)CCC(=O)O1 (stereo not drawn) , its growth = 96.9

Bench note, HT29 colon: entry CC(=O)C(/C=N/C(N)=O)=C(/C)O , its growth = 101

Bench note, HT29 colon: entry CCCCCCCCCCCCOc1ccccc1C=O , its growth = 96.7

Bench note, HT29 colon: entry C1CCCCNCCC1 , its growth = 95.1

====

system: HOP-62 NSCLC; assay: NCI-60 one-dose screen, 48 h (100 = growth as untreated, 0 = no growth, -100 = all killed); conditions: 10 µM unless noted
About 83,000 compounds went through this panel and 20% of them were active in at least one assay; those are over-represented in the sample as a whole.
quantity_measured: growth (%)
Please give a number only; it is taken to be in %.

molecule: C1CCCCNCCC1
growth, %: 116
--
molecule: CC1=C(/C=C/C(C)=C/C=C/C(C)=C/C=N/NC(=S)NC(=S)N/N=C/C=C(C)/C=C/C=C(C)/C=C/C2=C(C)CCCC2(C)C)C(C)(C)CCC1
growth, %: -7.59

Continue with the next molecule.
Bench note, HOP-62 NSCLC: entry O=C1c2c(O)cc(O)cc2OC(c2ccc(O)c(O)c2)C1O (stereo not drawn) , its growth = 110

====

system: SK-OV-3 ovarian; assay: NCI-60 one-dose screen, 48 h (100 = growth as untreated, 0 = no growth, -100 = all killed); conditions: 10 µM
This is part of a sample that, as a whole, favours compounds with a hit. Of some 83,000 tested, about 20% had one in any assay.
Measured growth accompanies every entry in the list below.
Please give a number only; it is taken to be in %.

given_smiles: CCc1ccccc1-n1c(N)c(C#N)c(-c2ccc(OC)c(OC)c2)c(C#N)c1=O
observed_value: 111

given_smiles: CNC(=O)c1cc(Oc2ccc(CC(=O)Nc3cc(C(C)(C)C)nn3C)cc2)ccn1
observed_value: 71.8

given_smiles: O=C(O)c1sccc1O
observed_value: 84.5

growth recorded for this compound, CC#C[C@]1(O)CC[C@H]2[C@@H]3CCC4=CC(=O)CCC4=C3[C@@H](c3ccc4c(c3)OCO4)C[C@@]21C , is 87.8

The reported numbers originate from PubChem BioAssay (NCI).
